Assay: Permeability of the compound from apical to basolateral side of human Caco2 cells
Format: ADME, cell-based
Conditions: Caco-2, read-out: permeability
parameter-measured: Papp A→B

{"smiles-input": "C[C@]12CC[C@H](NS(C)(=O)=O)C[C@@H]1CC[C@@H]1[C@@H]2CC[C@]2(C)[C@@H](C(=O)CO)CC[C@@H]12", "Papp A→B": "17.4 ×10⁻⁶ cm/s"}
{"smiles-input": "CCNC(=O)N[C@H]1CC[C@@]2(C)[C@@H](CC[C@@H]3[C@@H]2CC[C@]2(C)C(=O)CC[C@@H]32)C1", "Papp A→B": "31.6 ×10⁻⁶ cm/s"}
{"smiles-input": "C[C@]12CC[C@H](NS(N)(=O)=O)C[C@@H]1CC[C@@H]1[C@@H]2CC[C@]2(C)[C@@H](C(=O)CO)CC[C@@H]12", "Papp A→B": "13.1 ×10⁻⁶ cm/s"}
{"smiles-input": "CC(=O)[C@H]1CC[C@H]2[C@@H]3CC[C@H]4C[C@@H](NS(N)(=O)=O)CC[C@]4(C)[C@H]3CC[C@]12C", "Papp A→B": "2.1 ×10⁻⁶ cm/s"}

Kindly review the next molecule as well.
Task: Param item = "C[C@]12CC[C@H](NS(N)(=O)=O)C[C@@H]1CC[C@@H]1[C@@H]2CC[C@]2(C)C(=O)CC[C@@H]12" ; retrieve measured Papp A→B.
Output: 31.8 ×10⁻⁶ cm/s
